Species on record: Homo sapiens
TEST DETAILS: Inhibition of PKA (unknown origin) at 30 uM by microfluidic mobility shift assay relative to control

COMPOUND	inhibition (%)
c1ccc(C2CCC3(CCN(c4ncnc5[nH]cnc45)CC3)NC2)cc1 (stereo not drawn)	96
c1nc(N2CCC3(CCCNC3)CC2)c2nc[nH]c2n1	100
O=S(=O)(c1cccc2cnccc12)N1CCCC12CCNCC2	77
O=S(=O)(c1cccc2cnccc12)N1CCC2(CC1)CC(O)CCN2 (racemic)	92
c1nc(N2CCC3(CCCN3)CC2)c2nc[nH]c2n1	98
O=C(O)C1CCC2(CCN(c3ncnc4[nH]cnc34)CC2)NC1 (racemic)	78
O=S(=O)(c1cccc2cnccc12)N1CCC2(CCC(O)CN2)CC1 (racemic)	90
CN(C)C(=O)C1CCC2(CCN(c3ncnc4[nH]cnc34)CC2)NC1 (racemic)	86
O=S(=O)(c1cccc2cnccc12)N1CCC2(CCCCN2)CC1	89
c1nc(N2CCCC23CCNCC3)c2nc[nH]c2n1	39
O=S(=O)(c1cccc2cnccc12)N1CCCC2(CCNCC2)C1	83
c1nc(N2CCCC3(CCCNC3)C2)c2nc[nH]c2n1 (stereo not drawn)	89
NC1(Cc2ccccc2)CCN(c2ncnc3[nH]cnc23)CC1	96
O=S(=O)(c1cccc2cnccc12)N1CCC2(CCCN2)CC1	92
OC1CCNC2(CCN(c3ncnc4[nH]cnc34)CC2)C1 (racemic)	98
CNC(=O)C1CCC2(CCN(c3ncnc4[nH]cnc34)CC2)NC1 (racemic)	95
c1ccc(CC2CCC3(CCN(c4ncnc5[nH]cnc45)CC3)NC2)cc1 (racemic)	95
c1nc(N2CCC3(CCCCN3)CC2)c2nc[nH]c2n1	98
COC(=O)C1CCC2(CCN(c3ncnc4[nH]cnc34)CC2)NC1 (racemic)	87
c1nc(N2CCC3(CCCOC3)CC2)c2nc[nH]c2n1	67
c1nc(N2CCC3(CCCCO3)CC2)c2nc[nH]c2n1	77
c1ccc(C2CCNC3(CCN(c4ncnc5[nH]cnc45)CC3)C2)cc1 (racemic)	100
O=S(=O)(c1cccc2cnccc12)N1CCC2(CCCNC2)CC1	77

Provenance of the data: ChEMBL document CHEMBL2417369
